The values you see were collected from the supplement of paper PMC3334620.

system_under_test: Upc2 (UniProt Q12151)
Sequence: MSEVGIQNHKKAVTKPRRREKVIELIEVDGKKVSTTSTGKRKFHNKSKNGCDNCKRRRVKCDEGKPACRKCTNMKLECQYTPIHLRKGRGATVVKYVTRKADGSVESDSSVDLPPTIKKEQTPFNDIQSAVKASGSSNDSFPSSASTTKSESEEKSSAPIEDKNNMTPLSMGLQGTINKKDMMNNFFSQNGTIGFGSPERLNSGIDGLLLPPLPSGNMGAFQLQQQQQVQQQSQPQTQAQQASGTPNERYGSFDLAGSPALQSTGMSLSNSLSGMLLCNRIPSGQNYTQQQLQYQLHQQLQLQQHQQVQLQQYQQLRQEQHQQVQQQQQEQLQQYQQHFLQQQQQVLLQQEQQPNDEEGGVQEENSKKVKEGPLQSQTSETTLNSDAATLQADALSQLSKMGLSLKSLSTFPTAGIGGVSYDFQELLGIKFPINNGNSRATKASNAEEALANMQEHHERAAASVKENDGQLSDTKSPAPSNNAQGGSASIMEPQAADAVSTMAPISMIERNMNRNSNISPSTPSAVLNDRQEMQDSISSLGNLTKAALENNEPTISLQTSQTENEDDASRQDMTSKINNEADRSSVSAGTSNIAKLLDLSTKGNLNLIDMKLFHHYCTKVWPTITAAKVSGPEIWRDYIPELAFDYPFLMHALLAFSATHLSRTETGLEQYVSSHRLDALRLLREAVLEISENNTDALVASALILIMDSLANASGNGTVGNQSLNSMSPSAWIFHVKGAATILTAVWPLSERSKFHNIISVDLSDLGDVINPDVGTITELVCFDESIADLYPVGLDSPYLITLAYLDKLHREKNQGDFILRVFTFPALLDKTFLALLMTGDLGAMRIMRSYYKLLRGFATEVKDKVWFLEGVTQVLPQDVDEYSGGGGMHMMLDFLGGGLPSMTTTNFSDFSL
assay_protocol: PBM E-score (8-mer binding enrichment) (E-score (-0.5 to 0.5)); higher = stronger / more preferred TF binding
experimental_conditions: protein concentration: 200 nM; construct: GST-full length
The full ranking holds about 33,000 sequences; the median of “E-score (-0.5 to 0.5)” is about -0.043, and the highest 2% start at about 0.37. For the sample, the highest values were picked, then their nearest neighbours and some sequences at random.
property: PBM E-score
Reply: number alone, nothing else.

Q. Missing value: PBM E-score, Upc2 (UniProt Q12151), entry ATAACCTC . Fill in?
A. -0.0875

Q. # value lookup — system Upc2 (UniProt Q12151), readout PBM E-score, item AACATCAT
A. -0.094

Q. Find PBM E-score (Upc2 (UniProt Q12151)) for the entry ATCGGTCG
A. 0.197

Q. # returns recorded PBM E-score (system: Upc2 (UniProt Q12151)) for ACGCACTC
A. 0.151

Q. Request body: readout PBM E-score, system Upc2 (UniProt Q12151), query AAGATTGA . Return the value.
A. -0.156

Q. Value wanted: PBM E-score (Upc2 (UniProt Q12151)) of entry GTGGGGCA
A. -0.058

Q. Form entry - test system: Upc2 (UniProt Q12151); read-out: PBM E-score; sequence: AGCAGAAG
A. -0.255

Q. Recall the recorded PBM E-score for AACGTCAC with Upc2 (UniProt Q12151) and state it.
A. -0.0182

Q. // map CCAGTGAC to recorded PBM E-score (system: Upc2 (UniProt Q12151))
A. -0.217

Q. Form field: PBM E-score recorded for CCTGCTTC with Upc2 (UniProt Q12151) (enter value)
A. -0.109

Q. State its PBM E-score on Upc2 (UniProt Q12151): AGTGAGTC
A. -0.211

Q. Fill in the recorded PBM E-score for this sequence, with Upc2 (UniProt Q12151) as test system: GGTGACTA
A. -0.0935

Q. Lab request: please report PBM E-score under test system Upc2 (UniProt Q12151) for CCGGGGAA
A. -0.23

Q. Field: PBM E-score (Upc2 (UniProt Q12151)). Entry: AATGAGTC
A. -0.0524

Q. Record ATATCTAG : what is its PBM E-score with Upc2 (UniProt Q12151)?
A. -0.0547

Q. # get_value(readout= PBM E-score, system= Upc2 (UniProt Q12151)) for CGATTCGA
A. 0.0594

Q. Give the reported PBM E-score for GAATTTGA (system: Upc2 (UniProt Q12151)).
A. -0.0533

Q. Give Upc2 (UniProt Q12151) PBM E-score for GAAGAAAC
A. 0.0334

Q. Record TCATCAGA : what is its PBM E-score with Upc2 (UniProt Q12151)?
A. -0.187

Q. API: value(readout=PBM E-score, system=Upc2 (UniProt Q12151)) for record ACGGGCTC
A. 0.128

Q. Request - read-out PBM E-score | tested on Upc2 (UniProt Q12151) | sequence CAAACCCA
A. 0.0481

Q. Provide value of PBM E-score for this record tested with Upc2 (UniProt Q12151): GATCCAGA
A. 0.0551
